All figures here come from paper PMC7970697.

- experiment_summary: Pharmacokinetics of probe substrates in rats with or without poziotinib pre-treatment
- test_parameters: male, Sprague-Dawley, rat, in vivo, po, Tmax, Treated group: oral probe cocktail (10 mg/kg; tolbutamide 1 mg/kg) after 7 days oral poziotinib 5 mg/kg, rats, n = 6
metric_name: Tmax (h)
State just the number; it will be interpreted in h.

Can you look up the measured Tmax of COc1ccc2c(c1)[C@]13CCCC[C@@H]1[C@H](C2)N(C)CC3 for me? 1.58

---

- System: cyp3a1/2
- experiment_summary: Cocktail method IC50 in rat liver microsomes, midazolam probe
- Format: in vitro ADME
- test_parameters: pH 7.4, probe midazolam (5 μM), 5 μM midazolam, cocktail, 30 min
metric_name: IC50 at 30 min (µM)
Just the number in µM, nothing appended.

Reported IC50 at 30 min for C=CC(=O)N1CCC(Oc2cc3c(Nc4ccc(Cl)c(Cl)c4F)ncnc3cc2OC)CC1 [Poziotinib] : what is it? 303
